Listing of entries alongside the reported pest or weed control at 100 ppm.
# Test system: common cutworm (Spodoptera litura)
# test summary: Insecticidal test against common cutworm (Test Example 2)
# Assay type: in vivo
# assay setup: in Brassica oleracea, foliar, 144 h, read-out: insecticidal rate (rate of dead insects)

| compound | pest or weed control at 100 ppm |
| --- | --- |
| CCN(C(=O)c1ccc(C2=NOC(c3cc(Cl)cc(Cl)c3)(C(F)(F)F)C2)cc1C)c1ccccc1 (stereo not drawn) | ≥ 80% |
| Cc1cc(C2=NOC(c3cc(Cl)cc(Cl)c3)(C(F)(F)F)C2)ccc1C(=O)N(C)C(N)=O (stereo not drawn) | ≥ 80% |
| COC(=O)N(C(=O)c1ccc(C2=NOC(c3cc(Cl)cc(Cl)c3)(C(F)(F)F)C2)cc1C)c1ncccn1 (stereo not drawn) | ≥ 80% |
